# System: SK-MEL-28 melanoma cells
# assay.info: CellTiter-Glo Luminescent Cell Viability Assay
# Type: cell-based
# stated.conditions: Homo sapiens, SK-MEL-28, BRAF V600E, 72 hrs
measured.attribute: IC50 (nM)
Give the number; nM is assumed, so skip it.

Data point: `Nc1ncnc2c1c(-c1ccc(Oc3ccccc3)cc1)nn2C[C@@H]1SSC[C@@H]1O` ; IC50 = 812

====

# measured.on: CSK (Homo sapiens)
# Sequence (P41240 whole entry): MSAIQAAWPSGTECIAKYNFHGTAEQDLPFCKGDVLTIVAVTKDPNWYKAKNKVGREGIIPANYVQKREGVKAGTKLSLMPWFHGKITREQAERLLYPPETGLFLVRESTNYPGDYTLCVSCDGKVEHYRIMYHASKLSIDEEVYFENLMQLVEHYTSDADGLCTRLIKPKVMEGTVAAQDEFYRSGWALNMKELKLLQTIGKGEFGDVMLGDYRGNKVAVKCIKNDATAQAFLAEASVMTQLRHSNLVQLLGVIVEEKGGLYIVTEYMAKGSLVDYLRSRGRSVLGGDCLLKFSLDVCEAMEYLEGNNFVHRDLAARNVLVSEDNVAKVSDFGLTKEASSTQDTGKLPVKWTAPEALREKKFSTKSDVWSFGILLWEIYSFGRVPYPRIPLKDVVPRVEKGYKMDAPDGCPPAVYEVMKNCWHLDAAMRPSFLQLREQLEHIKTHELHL
# assay.info: KiNativ in situ kinase profiling in melanoma cell lysates
# Assay type: binding
# Set-up: we tested the endogenous kinome response to SAB298; host or cells: YUSIV and YUSIK melanoma cell lysates
# stated.conditions: CSK in YUSIV lysate; 3-point dose response
measured.attribute: pIC50
# pIC50: negative log10 of molar concentration; output just the value

Data point: `Nc1ncnc2c1c(-c1ccc(Oc3ccccc3)cc1)nn2C[C@@H]1SSC[C@@H]1O` ; pIC50 = 6.38
